The reader will find reported z-score values listed item by item below.
Test: basal HepG2 mitochondrial membrane potential changes, profiling panel, cell-based, JC-1 fluorescence, 24 h, 100 nL compound (AID 1167); further: test concentration not given here
Conditions: higher = more signal
// no unit string in output, number only

CC(C)C(=C=CC[C@H](O)c1cccc(OCCO)c1)C[C@H](O)c1ccccn1
0.807

Return the recorded z-score value; entry: `CCOC(=O)C[C@H]1[C@H](OC(=O)c2ccc(-c3ccccc3)cc2)[C@@H](NC(=O)c2ccc(-c3ccccc3)cc2)c2cc(OCCCO)ccc2N1C(=O)c1ccccc1` 0.642

Return the recorded z-score value; entry: `COc1ccc([Si](C)(C)[C@H]2[C@H](CC(=O)N(CCO)Cc3ccccc3)O[C@@]3(C(=O)N(c4ccccc4)c4ccccc43)[C@@H]2C)cc1` -2.35

Return the recorded z-score value; entry: `Cc1ccc(S[C@]2(C(=O)NCc3ccccc3)CC(=O)N(Cc3ccccc3Cl)[C@@H]2c2ccc(CO)cc2)cc1` 0.0273

Return the recorded z-score value; entry: CC1(C)OB(/C=C\CC(OC(=O)c2ccncc2)c2ccccc2)OC1(C)C (stereo not given) -1.27

Return the recorded z-score value; entry: `[N-]=[N+]=Nc1ccccc1C[C@@]1(C(=O)NCc2ccccc2)N=C(c2ccc(OCCCO)cc2)O[C@@H]1c1ccccc1` 1.45

Return the recorded z-score value; entry: CCCCN1CC=CC23O[C@@H]4/C=C\CCCOC(=O)C4[C@H]2C(=O)N(CCCCCCO)[C@@H]3C1=O (stereo not given in full) 0.608

Return the recorded z-score value; entry: `NCCCCCCNC(=O)[C@@H]1C[C@@H]2C(=O)NCC(=O)N2[C@@H]1c1cccc(OCCO)c1` 1.14

Return the recorded z-score value; entry: `C=C(CC1([C@@H](NP(=O)(c2ccccc2)c2ccccc2)[C@H]2C[C@@H]2CCCC)CC1)c1cccc(OC)c1` -1.28

Return the recorded z-score value; entry: `COCCOC(=O)N1C(=O)[C@@]2(c3cc(C#CCNC(N)=O)ccc31)[C@H](c1ccccc1OCCO)N1[C@H](c3ccccc3)[C@H](c3ccccc3)OC(=O)[C@H]1[C@@H]2C(=O)N1CCCCCCC1` -1.51

Return the recorded z-score value; entry: `C=C[C@H](C)[C@@H](OC(=O)Nc1ccc(SC)cc1)c1ccc(OCCO)cc1` -3.37

Return the recorded z-score value; entry: COc1ccc(C(O)C2C=CC3C(=O)N(c4ccccc4)C(=O)C3N2Nc2ccccc2F)c2ccccc12 (stereo not given) -1.78

Return the recorded z-score value; entry: `COC(=O)C(CC#Cc1ccc2c(c1)[C@]1(C(=O)N2)[C@H](c2ccc(OCCO)cc2)N2[C@H](c3ccccc3)[C@H](c3ccccc3)OC(=O)[C@H]2[C@@H]1C(N)=O)C(=O)OC` -0.68

Return the recorded z-score value; entry: O=C1NC(=O)C2C1C=CC(C(O)c1ccc(F)cc1)N2Nc1ccc(Cl)cc1Cl (stereo not given) -3.47

Return the recorded z-score value; entry: `CCCNC(=O)[C@@]1(Sc2ccc(C)cc2)CC(=O)N(Cc2cc(C(F)(F)F)cc(C(F)(F)F)c2)[C@@H]1c1ccc(CO)cc1` -0.537

----------
Experiment: small-molecule microarray binders of probe aShh, primary screen, biochemical, biotinylated probe, 635/667 nm fluorescence (AID 1114);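 further: probe is biotin-labelled aShh protein from a stem cell growth factor screen; measures binding of labelled protein to compounds printed on the slide; score merges feature fluorescence at 667 nm with signal-to-noise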
Conditions: higher = more signal
propertyName: composite z-score

CCOC(=O)C[C@H]1[C@H](OC(=O)c2cc3ccccc3oc2=O)[C@@H](NC(=O)Cc2ccc(OC)cc2)c2cc(OCCCO)ccc2N1C(=O)Cc1ccc(OC)cc1
-0.145
COCCCNC(=O)[C@@]1(Cc2ccccc2I)c2ccccc2C(=O)N(Cc2ccccc2C(F)(F)F)[C@H]1c1ccc(CO)cc1
-0.0848
CC(C)(C)OC(=O)CC[C@@]1(C(=O)N2CCOCC2)N=C(c2ccc(OCCCO)cc2)O[C@@H]1c1ccccc1CN=[N+]=[N-]
0.0875
CCN1C(=O)C2CC(=O)C3C(CN(S(=O)(=O)c4ccc(C)cc4)C3c3ccc(C)cc3)C2C1=O (stereo not drawn)
0.749
COC(=O)C1=CC(c2ccc(CO)cc2)=CC(C2CC2)N(Cc2cc3c(cc2Br)OCO3)C=C1C(=O)OC (stereo not drawn)
0.254
COC(=O)C(CC#Cc1ccc2c(c1)[C@]1(C(=O)N2)[C@H](c2ccc(OCCO)cc2)N2[C@H](c3ccccc3)[C@H](c3ccccc3)OC(=O)[C@H]2[C@@H]1C(N)=O)C(=O)OC
-0.123

Return the recorded composite z-score value; entry: `COC(=O)C(CC#Cc1ccc2c(c1)[C@]1(C(=O)N2)[C@H](C(=O)N2CCN(c3ncccn3)CC2)[C@H]2C(=O)O[C@H](c3ccccc3)[C@H](c3ccccc3)N2[C@@H]1c1ccc(O)cc1)C(=O)OC` 0.87

Return the recorded composite z-score value; entry: `COC(=O)[C@@]1(Cc2ccc(F)cc2)[C@H]2c3cc(C(=O)N4CCCC4)n(Cc4ccc(OC(F)(F)F)cc4)c3C[C@H]2CN1C(=O)c1ccccc1` 0.265

Return the recorded composite z-score value; entry: `COc1ccc([Si](C)(C)[C@@H]2[C@@H](CC(=O)N3Cc4ccccc4C[C@H]3CO)O[C@]3(C(=O)N(Cc4ccc(I)cc4)c4ccccc43)[C@H]2C)cc1` -0.304

Return the recorded composite z-score value; entry: `C=C(/C=C\CNS(=O)(=O)c1ccc(C)cc1)[C@H](O)[C@H]1CCCN1S(=O)(=O)c1ccccc1[N+](=O)[O-]` -0.138

Return the recorded composite z-score value; entry: CCCC1(C(=O)OC)C=C2C(=C(C(C)C)C(=O)C2C)CN1 (stereo not drawn) 0.381

Return the recorded composite z-score value; entry: COc1ccc(NN2C(C(O)c3ccccc3)C=CC3C(=O)N(C4CCCCC4)C(=O)C32)cc1 (stereo not drawn) 0.13

Return the recorded composite z-score value; entry: `COC(=O)[C@@]1(Cc2ccc(OC)cc2)[C@H]2c3cc(C(=O)N(C)C)n(Cc4c(CO)[nH]cc(C)c4=O)c3C[C@H]2CN1C(=O)c1ccccc1` 0.04

----------
The reader will find reported z-score values listed item by item below.
Target: NADPH oxidase 5 (Homo sapiens)
Assay: NOX5-dependent H2O2 signal modulators, primary screen, NOX inhibitor project, cell-based, HEK293-NOX5, Amplex Red fluorescence (AID 1161)
Conditions: HEK293-NOX5, ionomycin, 45 min, higher = more signal

Some compounds with known z-score results, for comparison:
CO[C@H]1O[C@H](CO)[C@@H](OC(=O)Nc2cccc(F)c2)[C@H](OC(=O)c2cc3ccccc3[nH]2)[C@H]1OC(=O)c1cc2ccccc2[nH]1
-3.81
C=C(COC)C(=O)CC[C@@H](OC(=O)c1ccccc1-c1ccccc1C(=O)O)c1ccccc1OCCO
-0.933
C=CCNC(=O)[C@@H]1[C@H]2C(=O)O[C@H](c3ccccc3)[C@H](c3ccccc3)N2[C@H](c2ccc(O)cc2)[C@@]12C(=O)N(C(=O)OCCOC)c1ccc(C#CCC(C(=O)OC)C(=O)OC)cc12
0.831

Return the recorded z-score value; entry: `C[C@]1(C(=O)NCC(F)(F)F)c2ccccc2C(=O)N(Cc2cc(C(F)(F)F)cc(C(F)(F)F)c2)[C@H]1c1ccc(CO)cc1` 0.648

----------
Test: binders of probe aFST on microarray, primary screen, stem cell growth factor project, biochemical, small-molecule microarray, fluorescence 635/667 (AID 1086);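 further: score merges 667 nm fluorescence with signal-to-noise of each printed compound spot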
Settings: higher = more signal
The reader will find reported composite z-score values listed item by item below.
// no unit string in output, number only

Some molecules with known composite z-score results, for comparison:
CC1CC/C=C\[C@H]2OC34C=CCN(C(C)C)C(=O)[C@H]3N(C(C)CO)C(=O)[C@@H]4C2C(=O)O1 (some centres undefined)
-0.088
COc1cc(CO)cc(I)c1O[C@H]1C=C(C(=O)NCCO)C[C@@H](N(CCN2CCOCC2)C(=O)C2CCCO2)[C@@H]1O (some centres undefined)
0.0496
[N-]=[N+]=NCc1ccccc1[C@H]1OC(c2ccc(OCCCO)cc2)=N[C@@]1(Cc1ccccc1N=[N+]=[N-])C(=O)O
0.632
CC(CO)N1C(=O)[C@@H]2[C@H]3C(=O)OCC=C[C@H]3OC23C=CCN(c2ccc4ccccc4c2)C(=O)[C@@H]13 (some centres undefined)
-0.946
Cc1ccc(S[C@]2(C(=O)NC(C)C)CC(=O)N(Cc3ccccc3)[C@@H]2c2ccc(CO)cc2)cc1
-0.604
CN1C(=O)C2C=CC(C(O)c3ccc([N+](=O)[O-])cc3)N(Nc3ccccc3)C2C1=O (centres undefined)
0.955

Return the recorded composite z-score value; entry: `Cc1ccc(N2C(=O)c3ccccc3[C@@H](C(=O)NCCN3CCOCC3)[C@@H]2c2ccc(CO)cc2)nc1` -0.58

Return the recorded composite z-score value; entry: `COC(=O)C[C@H]1O[C@]2(C(=O)N(C)c3ccccc32)[C@@H](C)[C@@H]1[Si](C)(C)c1ccccc1` 0.333
